// data source = paper PMC11564790

# ASSAY_TARGET: MBP-fused YpsR (1-179); YpsR-MBP; heading also 'YpeR' (Yersinia pseudotuberculosis)
# Sequence (Q669I5 1-179 limits assumed): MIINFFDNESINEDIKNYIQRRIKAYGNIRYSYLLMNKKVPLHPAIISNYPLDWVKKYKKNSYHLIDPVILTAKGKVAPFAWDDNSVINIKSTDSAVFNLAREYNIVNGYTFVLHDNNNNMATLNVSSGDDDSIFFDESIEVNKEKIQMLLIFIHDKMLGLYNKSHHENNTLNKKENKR
# ASSAY_SETUP: read-out: Dissociation constant
pKd: −log10 of the molar value.
pKd overview
QUANTITY: pKd

>>> value_reported("CCCCCCCCCC(=O)N[C@H]1CCOC1=O")
4.67
>>> value_reported("CCCCCC(=O)CC(=O)N[C@H]1CCOC1=O")
4.62
>>> value_reported("CCCCCCCC(=O)N[C@H]1CCOC1=O")
4.81
>>> value_reported("CCCCCCCC(=O)CC(=O)N[C@H]1CCOC1=O")
3.84
>>> value_reported("CCCCCCCCCC(=O)CC(=O)N[C@H]1CCOC1=O")
3.89
>>> value_reported("CCCCCCCCCCCC(=O)CC(=O)N[C@H]1CCOC1=O")
4.74
>>> value_reported("CCCC(=O)CC(=O)N[C@H]1CCOC1=O")
5.89
>>> value_reported("CCCCCC(=O)N[C@H]1CCOC1=O")
5.18
